- System: NCI-H322M lung
- test.name: NCI-60 one-dose screen, 48 h (100 = growth as untreated, 0 = no growth, -100 = all killed)
- settings: 10 µM unless noted
About 83,000 compounds went through this panel and 20% of them were active in at least one assay; those are over-represented in the sample as a whole.
Could you please report measured growth for the items listed next?
Supply the numeric figure in %, leaving out any unit text.

Entry Cn1cc(-c2cc(N)n3nc(-c4c[nH]c5ccccc45)cc3n2)c2cc(Br)ccc21 — recorded growth = -37.2

Entry CC(=O)C[n+]1cccc2c3ccccc3ccc21 — recorded growth = 89.7

Entry Cc1ccc(C(=O)Nc2cc(-n3cnc(F)c3)cc(C(F)(F)F)c2)cc1C#Cc1cnc2cccnn12 — recorded growth = 97.9

Entry COc1cccc(/C=C/c2nc3ccccc3c(=O)n2CC(=O)Nc2ccccc2)c1 — recorded growth = 72.3

Entry CCOc1ccc2[nH]c(=O)c(C(c3nnnn3CC3CCCO3)N3CCN(Cc4ccccc4)CC3)cc2c1 (centres undefined) — recorded growth = 101

Entry Cc1ccc(C2CC(c3ccc(NC(=O)Nc4ccccc4)cc3)=NN2c2ccc(S(N)(=O)=O)cc2)cc1 (centres undefined) — recorded growth = -96.5

Entry CCCCCCCCc1ccc(C(=O)Nc2ccc(C)cc2C(=O)O)cc1 — recorded growth = 91.1

Entry O=C(c1ccc(Cl)cc1)C1[C@H](c2ccccc2Cl)[C@@H](c2ccccc2)NC12C(=O)Nc1ccccc12 (some centres undefined) — recorded growth = 12.5

Entry O=C(Cn1c(/C=C/c2ccc([N+](=O)[O-])cc2)nc2ccccc2c1=O)Nc1ccccc1 — recorded growth = 67.2
